# Test system: K562
# TEST NAME: Antiproliferative activity against human K562 cells after 5 days by MTT assay
# Type: functional, cell-based
# CONDITION: Homo sapiens, K562, 120 h
pIC50: −log10 of the molar value.
Lab note: compare pIC50 against 6. Equal or greater, write yes (1). Smaller, write no (0).

For orientation, consider the following solved cases.
COMPOUND | CATEGORY
CO/C(=C\c1cc(F)c(OC)c(F)c1)C(=O)c1cc(OC)c(OC)c(OC)c1 | yes (1)
COc1ccc(/C=C/C(=O)c2ccc(OC)c(OC)c2)c(OC)c1 | yes (1)
COc1ccc(/C=C/C(=O)c2ccc(OC)c(OC)c2OC)cc1 | yes (1)
COc1ccc(CCCc2cc(OC)c(OC)c(OC)c2)cc1 | yes (1)
COc1cc(C(=O)/C(C)=C/c2cc(F)c(OC)c(F)c2)cc(OC)c1OC | yes (1)

Query: Evaluate `COc1ccc(/C=C(\C)C(=O)c2ccc(OC)cc2)cc1` : pIC50 at minimum 6?
Reply: no (0)

Query: Evaluate `COc1cc(/C=C/C(=O)c2ccc(F)cc2)cc(OC)c1OC` : pIC50 at minimum 6?
Reply: no (0)

Query: Evaluate `COc1cc(C(=O)/C=C/c2cc(OC)c(OC)c(OC)c2)ccc1O` : pIC50 at minimum 6?
Reply: no (0)

Query: Evaluate `O=C(/C=C/c1ccc(F)cc1)c1ccc(F)cc1` : pIC50 at minimum 6?
Reply: no (0)

Query: Evaluate `O=C(/C=C/c1ccc2c(c1)OCO2)c1ccc(F)cc1` : pIC50 at minimum 6?
Reply: no (0)

Query: Evaluate `CCCO/C(=C\c1cc(F)c(OC)c(F)c1)C(=O)c1cc(OC)c(OC)c(OC)c1` : pIC50 at minimum 6?
Reply: yes (1)

Query: Evaluate `COc1cc(C(=O)/C=C/c2ccc(Cl)cc2Cl)cc(OC)c1OC` : pIC50 at minimum 6?
Reply: no (0)
